Below: a set of entries, each annotated with reported IC50.
tgt: LRRK2 (G2019S) (Homo sapiens, UniProt Q5S007, G2019S)
Sequence (Q5S007 970-2527 G2019S limits assumed): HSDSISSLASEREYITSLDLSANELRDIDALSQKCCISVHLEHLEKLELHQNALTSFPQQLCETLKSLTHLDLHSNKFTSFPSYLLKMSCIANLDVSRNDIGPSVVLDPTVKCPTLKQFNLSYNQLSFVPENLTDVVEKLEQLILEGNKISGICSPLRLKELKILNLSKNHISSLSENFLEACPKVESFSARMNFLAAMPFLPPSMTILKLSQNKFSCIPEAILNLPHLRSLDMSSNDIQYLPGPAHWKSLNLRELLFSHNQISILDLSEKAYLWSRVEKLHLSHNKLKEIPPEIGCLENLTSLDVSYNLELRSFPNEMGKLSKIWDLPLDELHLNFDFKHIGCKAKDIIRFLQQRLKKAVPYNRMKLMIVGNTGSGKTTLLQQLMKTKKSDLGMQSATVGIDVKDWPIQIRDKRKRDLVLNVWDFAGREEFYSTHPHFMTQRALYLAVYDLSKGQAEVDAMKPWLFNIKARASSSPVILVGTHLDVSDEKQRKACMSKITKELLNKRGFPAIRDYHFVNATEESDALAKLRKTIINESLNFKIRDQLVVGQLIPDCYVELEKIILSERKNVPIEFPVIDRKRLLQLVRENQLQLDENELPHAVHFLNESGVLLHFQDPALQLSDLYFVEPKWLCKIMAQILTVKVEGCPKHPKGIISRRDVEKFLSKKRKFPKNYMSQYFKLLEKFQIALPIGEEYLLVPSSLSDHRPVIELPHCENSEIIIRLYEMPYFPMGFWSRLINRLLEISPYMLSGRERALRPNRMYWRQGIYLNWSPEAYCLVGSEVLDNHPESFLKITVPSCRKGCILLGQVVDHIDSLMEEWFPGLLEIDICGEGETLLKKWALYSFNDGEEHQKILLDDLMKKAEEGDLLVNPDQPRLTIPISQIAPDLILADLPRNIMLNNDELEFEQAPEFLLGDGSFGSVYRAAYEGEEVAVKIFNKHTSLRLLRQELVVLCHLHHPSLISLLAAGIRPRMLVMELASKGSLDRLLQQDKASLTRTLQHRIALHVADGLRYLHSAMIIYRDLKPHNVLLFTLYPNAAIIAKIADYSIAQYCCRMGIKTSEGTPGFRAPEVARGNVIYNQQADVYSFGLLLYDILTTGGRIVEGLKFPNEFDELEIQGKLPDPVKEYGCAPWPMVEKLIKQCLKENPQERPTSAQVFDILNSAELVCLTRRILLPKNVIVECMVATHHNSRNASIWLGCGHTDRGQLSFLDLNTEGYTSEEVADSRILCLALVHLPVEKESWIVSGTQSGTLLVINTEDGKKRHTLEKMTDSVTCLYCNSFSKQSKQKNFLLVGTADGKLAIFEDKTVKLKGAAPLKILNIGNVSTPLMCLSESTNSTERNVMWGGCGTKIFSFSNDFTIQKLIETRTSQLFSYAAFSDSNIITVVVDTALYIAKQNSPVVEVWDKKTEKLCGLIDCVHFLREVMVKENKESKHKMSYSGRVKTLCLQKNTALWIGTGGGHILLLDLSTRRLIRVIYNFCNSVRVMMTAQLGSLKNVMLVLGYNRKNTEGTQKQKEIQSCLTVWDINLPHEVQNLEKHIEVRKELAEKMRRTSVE
experiment: LRRK2 G2019S enzyme inhibition, ADP-Glo kinase assay
Protocol: In order to evaluate the inhibitory activity of the compounds according to the present invention on LRRK2, LRRK2 (G2019S), DYRK1, CLK1 and TTK kinases, the following experiment was performed. Example compounds were reacted with the purified human LRRK2 G2019S (L10-12GG, SignalChem) enzyme to evaluate the enzyme inhibitory ability as follows. […]
Counter-ions that a name gives are not always drawn.
endpoint: IC50

>>> df
                                    compound  recorded_measurement
 0  COc1cc(S(C)(=O)=O)ccc1Nc1cc(NC(C)C)c2c(Cl)c[nH]c2n1        301 to 1000 nM
 1  CCNc1cc(Nc2ccc(S(=O)(=O)N3CCOCC3)cc2OC)nc2[nH]ccc12 [Example 11, trifluoroacetate]         101 to 300 nM
 2  CCCNc1cc(Nc2ccc(C(=O)N3CCOCC3)c3c2OCCO3)nc2[nH]cc(Cl)c12              < 100 nM
 3  CS(=O)(=O)CCNc1cc(Nc2ccc(C(=O)N3CCC(N4CCOCC4)CC3)c3c2OCCO3)nc2[nH]cc(C(F)(F)F)c12              < 100 nM
 4  CCNc1cc(Nc2ccc(C(=O)N3CCC(N4C[C@@H]5C[C@H]4CO5)CC3)c3c2OCC3)nc2[nH]cc(C(F)(F)F)c12              < 100 nM
 5  O=C(c1ccc(Nc2cc(C3CC3)c3c(C(F)(F)F)c[nH]c3n2)c2c1CCO2)N1CCOCC1        301 to 1000 nM
 6  CC(C)Nc1cc(Nc2ccc(C(=O)N3CCOCC3)c3c2OCCO3)nc2[nH]cc(Cl)c12        301 to 1000 nM
 7  CCCNc1cc(Nc2ccc(S(C)(=O)=O)cc2OC)nc2[nH]cc(Cl)c12        301 to 1000 nM
 8  CC(C)Nc1cc(Nc2ccc(C(=O)N3CCOCC3)c3c2OCCO3)nc2[nH]ccc12              < 100 nM
 9  CS(=O)(=O)CCNc1cc(Nc2ccc(C(=O)N3CCOCC3)c3c2OCCO3)nc2[nH]cc(Cl)c12              < 100 nM
10  CNc1cc(Nc2ccc(S(=O)(=O)N3CCC(N4CCOCC4)CC3)cc2OC)nc2[nH]cc(C(F)(F)F)c12              < 100 nM
11  CCNc1cc(Nc2ccc(C(=O)N3OCC[C@@H]3c3cc(F)cc(F)c3)c3c2OCC3)nc2[nH]cc(C(F)(F)F)c12        301 to 1000 nM
12  COCCNc1cc(Nc2ccc(S(=O)(=O)N3CCC(N4CCOCC4)CC3)cc2OC)nc2[nH]cc(C#N)c12              < 100 nM
13  COc1cc(S(=O)(=O)N2CCOCC2)ccc1Nc1cc(NCCS(C)(=O)=O)c2c(C(F)(F)F)c[nH]c2n1        301 to 1000 nM
14  N#Cc1c[nH]c2nc(Nc3ccc(C(=O)N4CCC(N5CCOCC5)CC4)c4c3OCCO4)cc(NC3CCC3)c12              < 100 nM
15  COc1cc(S(=O)(=O)N2CCOCC2)ccc1Nc1cc(NC2CCC2)c2c(Cl)c[nH]c2n1        301 to 1000 nM
16  CCCNc1cc(Nc2ccc(S(=O)(=O)N3CCOCC3)cc2OC)nc2[nH]ccc12 [Example 12, trifluoroacetate]              < 100 nM
17  CCNc1cc(Nc2ccc(C(=O)N3C[C@@H](C)O[C@@H](C)C3)c3c2OCC3)nc2[nH]cc(C(F)(F)F)c12        301 to 1000 nM
18  CCCNc1cc(Nc2ccc(S(C)(=O)=O)cc2OC)nc2[nH]ccc12              < 100 nM
19  CCCNc1cc(Nc2ccc(S(=O)(=O)N3CCOCC3)cc2OC)nc2[nH]cc(C(F)(F)F)c12        301 to 1000 nM
20  CNc1cc(Nc2ccc(C(=O)N3CCC(N4CCOCC4)CC3)c3c2OCCO3)nc2[nH]cc(C#N)c12              < 100 nM
21  COc1cc(S(=O)(=O)N2CCC(N3CCOCC3)CC2)ccc1Nc1cc(NC2CCC2)c2c(C#N)c[nH]c2n1              < 100 nM
22  CNc1cc(Nc2ccc(S(=O)(=O)N3CCC(N4C[C@@H]5C[C@H]4CO5)CC3)cc2OC)nc2[nH]cc(C(F)(F)F)c12              < 100 nM
23  CCNc1cc(Nc2ccc(C(=O)N3CCN(C4CC4)CC3)c3c2OCC3)nc2[nH]cc(C(F)(F)F)c12         101 to 300 nM
24  COc1cc(S(=O)(=O)N2CCC(N3CCOCC3)CC2)ccc1Nc1cc(NCCS(C)(=O)=O)c2cc[nH]c2n1              < 100 nM
25  CCNc1cc(Nc2ccc(S(=O)(=O)N3CCC(N4CCOCC4)CC3)cc2OC)nc2[nH]cc(Cl)c12         101 to 300 nM
26  COc1cc(S(=O)(=O)N2CCC(N3CCOCC3)CC2)ccc1Nc1cc(NC2CC2)c2c(C(F)(F)F)c[nH]c2n1 [Example 188, trifluoroacetate]         101 to 300 nM
27  COc1cc(S(=O)(=O)N2CCOCC2)ccc1Nc1cc(NCCS(C)(=O)=O)c2c(Cl)c[nH]c2n1        301 to 1000 nM
28  CCNc1cc(Nc2ccc(S(=O)(=O)N3CCC(N4CCOCC4)CC3)c3c2OCCO3)nc2[nH]cc(C(F)(F)F)c12              < 100 nM
